pIC50 listing for selected compounds.
Biological target: ULK1 kinase (Homo sapiens, UniProt O75385, E37A/K38A)
Construct: (residues 1-283; ID NO: 1)
Sequence (O75385 1-283 E37A/K38A): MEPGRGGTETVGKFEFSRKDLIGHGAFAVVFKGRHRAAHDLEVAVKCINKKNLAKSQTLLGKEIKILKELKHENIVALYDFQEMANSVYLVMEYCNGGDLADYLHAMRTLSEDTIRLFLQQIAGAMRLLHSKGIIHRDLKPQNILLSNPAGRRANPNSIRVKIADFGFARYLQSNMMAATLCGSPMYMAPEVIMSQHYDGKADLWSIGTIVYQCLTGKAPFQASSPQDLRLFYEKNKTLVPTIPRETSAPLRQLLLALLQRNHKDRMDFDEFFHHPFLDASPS
Test: Biochemical assay for ULK1 (coupled pyruvate kinase/lactate dehydrogenase assay)
Settings: 1 mM ATP, 0.1 nM ULK1; read-out: ULK1 (inhibition of biochemical activity), IC50
pIC50: −log10 of the molar value.

[[record]]
compound = "CC/C(Nc1cnn(C2CCN(C(C)C)CC2)c1)=C1/C(=O)Nc2ccc(C(=O)NC(C)C)cc21"
measure = "pIC50"
valuemeasured = "7.00 to 8.00"

[[record]]
compound = "CC/C(Nc1ccc(C(C)C)nc1)=C1/C(=O)Nc2ccc(C(=O)NCC(F)(F)F)cc21"
measure = "pIC50"
valuemeasured = "6.30 to 7.00"

[[record]]
compound = "CC/C(Nc1cnn(C2CCN(C(C)C)CC2)c1)=C1/C(=O)Nc2ccc(C(=O)NC3COC3)cc21"
measure = "pIC50"
valuemeasured = "6.30 to 7.00"

[[record]]
compound = "CC/C(Nc1cnn(C(C)C)c1)=C1/C(=O)Nc2ccc(C(=O)N3CC[C@H](C(F)(F)F)C3)cc21"
measure = "pIC50"
valuemeasured = "7.00 to 8.00"

[[record]]
compound = "CC/C(Nc1ccc(N2CC3CC(C2)N3C)cc1)=C1/C(=O)Nc2ccc(C(=O)NCC(F)(F)F)cc21"
measure = "pIC50"
valuemeasured = "≥ 8.00"


pIC50 reported for this compound `CC/C(Nc1cnn(C(C)C)c1)=C1/C(=O)Nc2ccc(C(=O)NCC3(C)COC3)cc21` : 7.00 to 8.00

pIC50 reported for this compound `CC/C(Nc1cnn(C(F)F)c1)=C1/C(=O)Nc2ccc(C(=O)NCC(C)C)cc21` : 7.00 to 8.00

pIC50 reported for this compound `CC/C(Nc1cnn(CC)c1)=C1/C(=O)Nc2ccc(C(=O)NCC3(C(F)(F)F)CC3)cc21` : ≥ 8.00

pIC50 reported for this compound `CC/C(Nc1cnn(C2CCN(C(C)C)CC2)c1)=C1/C(=O)Nc2ccc(C(=O)NCC(F)(F)F)cc21` : ≥ 8.00

pIC50 reported for this compound `CC/C(Nc1cnn(C2CCN(C(C)C)CC2)c1)=C1/C(=O)Nc2ccc(C(=O)NCc3cnn(C)c3)cc21` : 6.30 to 7.00

pIC50 reported for this compound `CC/C(Nc1ccc(N2CCN(C)CC2)cc1F)=C1/C(=O)Nc2ccc(C(=O)NCC(F)(F)F)cc21` : 6.30 to 7.00

pIC50 reported for this compound `CC/C(Nc1cnn(C(C)C)c1)=C1/C(=O)Nc2ccc(C(=O)N[C@@H](C)C(F)(F)F)cc21` : 7.00 to 8.00

pIC50 reported for this compound `CC/C(Nc1cnn(C(C)C)c1)=C1/C(=O)Nc2ccc(C(=O)NC)cc21` : 6.30 to 7.00

pIC50 reported for this compound `CC/C(Nc1cnn(C(F)F)c1)=C1/C(=O)Nc2ccc(C(=O)NCC(F)(F)F)cc21` : 7.00 to 8.00

----------
Assay read-out pIC50; system under study: ULK2 kinase (Homo sapiens, UniProt Q8IYT8).
Sequence (Q8IYT8 with tags, fused parts or gaps): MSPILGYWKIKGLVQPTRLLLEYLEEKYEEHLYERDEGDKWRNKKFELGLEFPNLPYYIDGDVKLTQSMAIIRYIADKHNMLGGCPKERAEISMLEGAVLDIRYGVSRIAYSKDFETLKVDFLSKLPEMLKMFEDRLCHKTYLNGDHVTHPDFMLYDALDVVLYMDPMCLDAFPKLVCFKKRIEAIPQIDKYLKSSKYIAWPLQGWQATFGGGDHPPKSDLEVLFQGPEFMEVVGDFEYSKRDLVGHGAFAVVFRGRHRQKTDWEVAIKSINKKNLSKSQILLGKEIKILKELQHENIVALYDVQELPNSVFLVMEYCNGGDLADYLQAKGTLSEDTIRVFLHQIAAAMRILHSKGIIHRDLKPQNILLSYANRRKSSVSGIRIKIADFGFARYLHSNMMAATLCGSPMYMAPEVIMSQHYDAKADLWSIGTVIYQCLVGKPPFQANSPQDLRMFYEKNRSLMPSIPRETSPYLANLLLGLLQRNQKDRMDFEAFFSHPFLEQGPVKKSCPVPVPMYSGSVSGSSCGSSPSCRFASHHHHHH
pIC50: −log10 of the molar value.

Study these solved cases before continuing.
[[record]]
compound = "CC/C(Nc1cnn(C2CCN(C(C)C)CC2)c1)=C1/C(=O)Nc2ccc(C(=O)NC[C@@H]3CCCO3)cc21"
measure = "pIC50"
valuemeasured = "7.00 to 8.00"

[[record]]
compound = "CC/C(Nc1cnn(C2CNC2)c1)=C1/C(=O)Nc2ccc(C(=O)NC[C@H]3CCCO3)cc21"
measure = "pIC50"
valuemeasured = "7.00 to 8.00"

[[record]]
compound = "CC/C(Nc1cnn(C(C)C)c1)=C1/C(=O)Nc2ccc(C(=O)NC[C@@H](C)OC)cc21"
measure = "pIC50"
valuemeasured = "6.30 to 7.00"

[[record]]
compound = "CC/C(Nc1cnn(C2CC3CCC(C2)N3C)c1)=C1/C(=O)Nc2ccc(C(=O)NC[C@H]3CCCO3)cc21 (some centres unmarked)"
measure = "pIC50"
valuemeasured = "7.00 to 8.00"

[[record]]
compound = "CC/C(Nc1cnn(C)c1)=C1/C(=O)Nc2ccc(C(=O)NC[C@H]3CCCO3)cc21"
measure = "pIC50"
valuemeasured = "6.30 to 7.00"


# value of pIC50, ULK2 kinase (Homo sapiens, UniProt Q8IYT8), item CC/C(Nc1cnn(C(C)C)c1)=C1/C(=O)Nc2ccc(C(=O)NCC3(C)CCOC3)cc21 (centres unmarked) = 7.00 to 8.00

# value of pIC50, ULK2 kinase (Homo sapiens, UniProt Q8IYT8), item `CC/C(Nc1cnn(CC(F)(F)F)c1)=C1/C(=O)Nc2ccc(C(=O)NCC(C)(C)F)cc21` = 7.00 to 8.00

# value of pIC50, ULK2 kinase (Homo sapiens, UniProt Q8IYT8), item `CC/C(Nc1cnn(C(C)C)c1)=C1/C(=O)Nc2ncc(C(=O)NCC(F)(F)F)cc21` = 6.30 to 7.00

# value of pIC50, ULK2 kinase (Homo sapiens, UniProt Q8IYT8), item `CC/C(Nc1cnn(C(C)C)c1)=C1/C(=O)Nc2ccc(C(N)=O)cc21` = 7.00 to 8.00

----------
Assay read-out IC50; system under study: UniProt:Q5S007.
Sequence (Q5S007 with tags, fused parts or gaps): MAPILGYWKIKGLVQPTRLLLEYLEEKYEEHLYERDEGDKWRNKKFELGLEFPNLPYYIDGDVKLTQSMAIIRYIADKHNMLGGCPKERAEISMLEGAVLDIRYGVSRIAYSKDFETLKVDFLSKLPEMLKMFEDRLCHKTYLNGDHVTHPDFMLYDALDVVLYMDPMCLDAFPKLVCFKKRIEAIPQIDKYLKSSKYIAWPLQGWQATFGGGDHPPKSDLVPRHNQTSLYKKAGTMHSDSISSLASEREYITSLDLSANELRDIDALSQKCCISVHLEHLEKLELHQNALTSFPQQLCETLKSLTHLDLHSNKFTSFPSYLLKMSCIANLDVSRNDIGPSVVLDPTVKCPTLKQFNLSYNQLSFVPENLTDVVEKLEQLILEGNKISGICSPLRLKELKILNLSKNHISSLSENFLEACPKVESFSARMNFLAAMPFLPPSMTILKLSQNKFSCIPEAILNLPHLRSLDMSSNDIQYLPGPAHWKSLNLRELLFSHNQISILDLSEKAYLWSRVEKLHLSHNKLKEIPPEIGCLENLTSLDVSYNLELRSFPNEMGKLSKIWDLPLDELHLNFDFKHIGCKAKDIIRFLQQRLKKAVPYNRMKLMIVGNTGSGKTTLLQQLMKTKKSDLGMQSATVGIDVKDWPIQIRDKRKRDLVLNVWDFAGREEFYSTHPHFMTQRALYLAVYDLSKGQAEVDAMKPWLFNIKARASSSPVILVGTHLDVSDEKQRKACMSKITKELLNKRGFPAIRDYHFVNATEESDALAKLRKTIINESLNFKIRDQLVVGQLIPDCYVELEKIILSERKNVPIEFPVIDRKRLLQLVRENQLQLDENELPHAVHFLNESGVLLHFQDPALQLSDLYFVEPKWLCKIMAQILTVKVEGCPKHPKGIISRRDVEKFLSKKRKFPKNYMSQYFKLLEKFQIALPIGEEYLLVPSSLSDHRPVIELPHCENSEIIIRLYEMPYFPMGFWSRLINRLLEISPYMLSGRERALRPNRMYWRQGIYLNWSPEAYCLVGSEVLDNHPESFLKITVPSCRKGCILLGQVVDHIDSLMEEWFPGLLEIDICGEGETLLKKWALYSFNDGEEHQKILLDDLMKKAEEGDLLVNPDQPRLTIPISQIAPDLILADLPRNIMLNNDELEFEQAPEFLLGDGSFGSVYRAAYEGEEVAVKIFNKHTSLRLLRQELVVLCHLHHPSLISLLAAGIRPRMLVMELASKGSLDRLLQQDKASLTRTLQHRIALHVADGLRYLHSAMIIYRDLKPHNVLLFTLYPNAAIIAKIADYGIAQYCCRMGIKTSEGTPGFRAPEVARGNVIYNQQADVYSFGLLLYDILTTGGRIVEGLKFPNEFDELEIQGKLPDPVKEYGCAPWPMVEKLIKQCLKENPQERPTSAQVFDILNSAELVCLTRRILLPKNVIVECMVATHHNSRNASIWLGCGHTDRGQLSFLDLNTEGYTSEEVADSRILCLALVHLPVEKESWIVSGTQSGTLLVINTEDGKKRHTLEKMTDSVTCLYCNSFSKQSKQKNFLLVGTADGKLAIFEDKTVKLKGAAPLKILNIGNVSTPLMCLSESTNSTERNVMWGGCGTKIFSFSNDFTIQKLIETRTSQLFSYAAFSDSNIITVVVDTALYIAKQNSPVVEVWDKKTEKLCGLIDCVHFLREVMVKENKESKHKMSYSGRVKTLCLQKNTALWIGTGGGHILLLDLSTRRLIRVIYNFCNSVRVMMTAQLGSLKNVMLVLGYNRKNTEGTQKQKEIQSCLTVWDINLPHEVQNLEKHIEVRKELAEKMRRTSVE

Study these solved cases before continuing.
[[record]]
compound = "CC/C(Nc1cn[nH]c1)=C1/C(=O)Nc2ccc(C(=O)NCC(F)(F)F)cc21"
valuemeasured = "100 to 300 nM"

[[record]]
compound = "CC/C(Nc1cnn(C(C)C)c1)=C1/C(=O)Nc2ccc(C(=O)NCC(C)C)cc21"
valuemeasured = "≤ 100 nM"

[[record]]
compound = "CC/C(Nc1cnn(C)c1)=C1/C(=O)Nc2ccc(C(=O)NCC3(F)CC3)cc21"
valuemeasured = "≤ 100 nM"

[[record]]
compound = "CC/C(Nc1cnn(C2CCC2)c1)=C1/C(=O)Nc2ccc(C(=O)NCC(F)(F)F)cc21"
valuemeasured = "≤ 100 nM"

[[record]]
compound = "CC/C(Nc1cnn(C2CCN(C(C)C)CC2)c1)=C1/C(=O)Nc2ccc(C(=O)NCCOC)cc21"
valuemeasured = "100 to 300 nM"

[[record]]
compound = "CC/C(Nc1cnn(C2CCN(C(C)C)CC2)c1)=C1/C(=O)Nc2ccc(C(=O)NC[C@H]3CCCO3)cc21"
valuemeasured = "100 to 300 nM"


Now turn to the next compound.
# value of IC50, UniProt:Q5S007, item `CC/C(Nc1ccc(-c2nc(C)no2)cc1)=C1/C(=O)Nc2ccc(C(=O)NCC(F)(F)F)cc21` = ≤ 100 nM

----------
Test system: ULK kinase substrate ATG13 (pS318-ATG13) in MiaPaCa-2 cells
Assay: pATG13 levels of mutant KRas MiaPaCa-2 cells after treatment with ULK inhibitors in combination with trametinib (ELISA)
Assay type: cell-based, human
IC50 listing for selected molecules.

Study these solved cases before continuing.
[[record]]
compound = "CC/C(Nc1cnn(C2CCN(CC3CC3)CC2)c1)=C1/C(=O)Nc2ccc(C(=O)NCC(C)C)cc21"
valuemeasured = "≤ 100 nM"

[[record]]
compound = "CC/C(Nc1cc(C(F)(F)F)ccn1)=C1/C(=O)Nc2ccc(C(=O)NCC(F)(F)F)cc21"
valuemeasured = "100 to 300 nM"


Now turn to the next molecule.
IC50 reported for this molecule `CC/C(Nc1cnn(C(C)C)c1)=C1/C(=O)Nc2ccc(C(=O)NCC3(C#N)CC3)cc21` : ≤ 100 nM

----------
pIC50 listing for selected molecules.
System: ULK kinase substrate ATG13 (pS318-ATG13) in MiaPaCa-2 cells
Assay: pATG13 levels of mutant KRas MiaPaCa-2 cells after treatment with ULK inhibitors in combination with trametinib (ELISA)
Format: cell-based, human
pIC50: −log10 of the molar value.

[[record]]
molecule = "CC/C(Nc1cnn(C2CCN(C(C)C)CC2)c1)=C1/C(=O)Nc2ccc(C(=O)NCC(C)(C)O)cc21"
valuemeasured = "≥ 7.00"

[[record]]
molecule = "CC/C(Nc1ccc(N2CC3CC(C2)N3C)cc1)=C1/C(=O)Nc2ccc(C(=O)NC[C@H]3CCCO3)cc21"
valuemeasured = "≥ 7.00"

[[record]]
molecule = "CC/C(Nc1ccc(N2CC3CC(C2)N3C)cc1)=C1/C(=O)Nc2ccc(C(=O)NCC(F)(F)F)cc21"
valuemeasured = "≥ 7.00"

[[record]]
molecule = "CC/C(Nc1cnn(C(C)C)c1)=C1/C(=O)Nc2ccc(C(=O)NC[C@@H](C)OC)cc21"
valuemeasured = "6.22 to 6.52"

[[record]]
molecule = "CC/C(Nc1cnn(C2CN(C)C2)c1)=C1/C(=O)Nc2ccc(C(=O)NCC(F)(F)F)cc21"
valuemeasured = "≥ 7.00"


Now turn to the next molecule.
pIC50 reported for this molecule `CC/C(Nc1cnn(C(F)(F)F)c1)=C1/C(=O)Nc2ccc(C(=O)NCC(F)(F)F)cc21` : ≥ 7.00
